target.desc: HIV-1 protease (Human immunodeficiency virus type 1 group M subtype B)
experimental.protocol: biochemical
protocol.conditions: dose 0.123 uM
One threshold, 70%, splits the recorded HIV-1 Protease % Inhib values: lower ones are Y, equal or higher ones are N.

Study these solved cases before continuing.
1. I.O=c1oc2c(c(O)c1C(c1cccc(NS(=O)(=O)CCCN3CCOCC3)c1)C1CC1)CCCCCC2 (centres unmarked) [Example 365B (Third Title Compound)] :: Y
2. N#Cc1ccc(S(=O)(=O)Nc2cccc(C(c3c(O)c4c(oc3=O)CCCCCC4)C3CC3)c2)cc1 (centres unmarked) [Example 262] :: N
3. CCCC(c1cccc(NS(=O)(=O)c2ccc(C#N)cc2)c1)c1c(O)c2c(oc1=O)CCCCCC2 (single isomer, unassigned) :: Y

Decide: HIV-1 Protease % Inhib of `Cn1cnc(S(=O)(=O)Nc2cccc([C@@H](c3c(O)c4c(oc3=O)CCCCCC4)C3CC3)c2)c1` strictly below 70%?
N

Decide: HIV-1 Protease % Inhib of CC(C)(C)OC(=O)N[C@@H](Cc1c[nH]cn1)C(=O)Nc1cccc(C(c2c(O)c3c(oc2=O)CCCCCC3)C2CC2)c1 (single isomer, unassigned) [Example 240] strictly below 70%?
Y

---

target.desc: HIV-1 protease (Human immunodeficiency virus type 1 group M subtype B, UniProt P04585)
experimental.protocol: biochemical
protocol.conditions: read-out: HIV-1 Protease % Inhib, dose 30.000 uM
Kindly supply the reported inhibition at 30 µM values for the records listed here.
Answers are plain numbers, in %.

1) CCCCC(c1cccc(NS(=O)(=O)c2ccc(C#N)cc2)c1)c1c(O)c2c(oc1=O)CCCCCC2 (stereo not drawn) :: 90
2) CC(C)C(c1cccc(NS(=O)(=O)c2ccc(F)cc2)c1)c1c(O)c2c(oc1=O)CCCCCC2 (stereo not drawn) :: 123
3) CC(C)c1ccc(S(=O)(=O)Nc2cccc(C(c3c(O)c4c(oc3=O)CCCCCC4)C3CC3)c2)cc1 (stereo not drawn) :: 91.8
4) CC(C)CC1CCCCc2c1oc(=O)c(C(c1ccccc1)C1CC1)c2O (stereo not drawn) :: 89.7
5) CC(C)(C)OC(=O)NCCCC(=O)Nc1cccc(C(c2c(O)c3c(oc2=O)CCCCCC3)C2CC2)c1 (stereo not drawn) :: 107
6) O=c1oc2c(c(O)c1[C@@H](c1cccc(NS(=O)(=O)c3cccc4cccnc34)c1)C1CC1)CCCCCC2 :: 96.9
7) Cn1cnc(S(=O)(=O)Nc2cccc([C@@H](c3c(O)c4c(oc3=O)CCCCCC4)C3CC3)c2)c1 :: 99.5
8) CC(C)C(c1cccc(N)c1)c1c(O)c2c(oc1=O)CCCCCC2 (stereo not drawn) :: 110
9) O=c1oc2c(c(O)c1C(c1cccc(NS(=O)(=O)c3ccc(NS(=O)(=O)c4ccccc4)cc3)c1)C1CC1)CCCCCC2 (stereo not drawn) :: 88.5
10) O=c1oc2c(c(O)c1C(c1cccc(NS(=O)(=O)c3ccc(Cl)cc3)c1)C1CC1)CCCCCC2 (stereo not drawn) :: 109

For each of the molecules below, note its inhibition at 30 µM.
1. CC(C)S(=O)(=O)Nc1cccc(C(c2c(O)c3c(oc2=O)CCCCCC3)C2CC2)c1 (stereo not drawn)
2. O=c1oc2c(c(O)c1C(c1cccc(NS(=O)(=O)c3ccc(Cl)c(Cl)c3)c1)C1CC1)CCCCCC2 (stereo not drawn)
3. CS(=O)(=O)Nc1cccc(C(c2c(O)c3c(oc2=O)CCCCCC3)C2CC2)c1 (stereo not drawn)

1. 111
2. 114
3. 113

For each of the molecules below, note its inhibition at 30 µM.
1. O=c1oc2c(c(O)c1C(c1cccc(NS(=O)(=O)c3ccc(CBr)cc3)c1)C1CC1)CCCCCC2 (stereo not drawn)
2. O=c1oc2c(c(O)c1C(c1cccc(NS(=O)(=O)c3ccc4ccccc4c3)c1)C1CC1)CCCCCC2 (stereo not drawn)
3. O=C(Nc1cccc(C(c2c(O)c3c(oc2=O)CCCCCC3)C2CC2)c1)Oc1ccccc1 (stereo not drawn)
4. CC(C)(C)OC(=O)N1CCC[C@H]1C(=O)Nc1cccc(C(c2c(O)c3c(oc2=O)CCCCCC3)C2CC2)c1 (stereo partly drawn)
5. CC(C)CC(c1cccc(NS(=O)(=O)c2ccc(F)cc2)c1)c1c(O)c2c(oc1=O)CCCCCC2 (stereo not drawn)

1. 97
2. 103
3. 91.7
4. 94.4
5. 98.5

For each of the molecules below, note its inhibition at 30 µM.
1. CC(=O)Nc1ccc(S(=O)(=O)Nc2cccc(C(c3c(O)c4c(oc3=O)CCCCCC4)C3CC3)c2)cc1 (stereo not drawn)
2. CCCC(c1cccc(NS(=O)(=O)c2cccnc2)c1)c1c(O)c2c(oc1=O)CCCCCC2 (stereo not drawn)
3. O=c1oc2c(c(O)c1C(c1cccc(S(=O)(=O)Nc3ccccc3)c1)C1CC1)CCCCCC2 (stereo not drawn)
4. O=c1oc2c(c(O)c1C(c1ccccc1)C1CC1)CCCCCC2C(O)C1CC1 (stereo not drawn)
5. O=c1oc2c(c(O)c1C(c1ccccc1)C1CC1)CCCCC2C(O)C1CC1 (stereo not drawn)
6. O=c1oc2c(c(O)c1C(c1cccc(NS(=O)(=O)c3ccccc3Cl)c1)C1CC1)CCCCCC2 (stereo not drawn)
7. Cc1cccc(S(=O)(=O)Nc2cccc(C(c3c(O)c4c(oc3=O)CCCCCC4)C3CC3)c2)c1 (stereo not drawn)

90.3
108
109
118
117
109
108

For each of the molecules below, note its inhibition at 30 µM.
1. O=c1oc2c(c(O)c1C(c1cccc(NS(=O)(=O)c3ccccc3F)c1)C1CC1)CCCCCC2 (stereo not drawn)
2. CC(C)(C)OC(=O)N[C@H](Cc1c[nH]cn1)C(=O)Nc1cccc(C(c2c(O)c3c(oc2=O)CCCCCC3)C2CC2)c1 (stereo partly drawn)
3. CCCC1CCCCCc2c1oc(=O)c([C@H](c1ccccc1)C1CC1)c2O (mixture of isomers)

1. 101
2. 116
3. 99.5

For each of the molecules below, note its inhibition at 30 µM.
1. O=c1oc2c(c(O)c1[C@H](c1ccccc1)C1CC1)CCCCCC2
2. O=C(O)c1cccc(S(=O)(=O)Nc2cccc(C(c3c(O)c4c(oc3=O)CCCCCC4)C3CC3)c2)c1 (stereo not drawn)

1: 105; 2: 111

---

target.desc: HIV-1 protease (Human immunodeficiency virus type 1 group M subtype B)
experimental.protocol: biochemical
protocol.conditions: read-out: HIV-1 Protease % Inhib, dose 3.300 uM
outcome.measure: inhibition at 3.3 µM (%)
One number for each entry, in %.

1. Nc1cccc(C(c2c(O)c3c(oc2=O)CCCCCC3)C2CC2)c1 (centres unmarked) :: 87.3
2. Cc1ccc(S(=O)(=O)Nc2cccc(C(c3c(O)c4c(oc3=O)CCCCCC4)C3CC3)c2)cc1 (centres unmarked) :: 105
3. CC(C)(C)OC(=O)NCCC(=O)Nc1cccc(C(c2c(O)c3c(oc2=O)CCCCC3)C2CC2)c1 (centres unmarked) :: 88.6
4. O=c1oc2c(c(O)c1C(c1cccc(NS(=O)(=O)c3c(F)c(F)c(F)c(F)c3F)c1)C1CC1)CCCCCC2 (centres unmarked) :: 101
5. CC(C)S(=O)(=O)Nc1cccc(C(c2c(O)c3c(oc2=O)CCCCCC3)C2CC2)c1 (centres unmarked) :: 106

For each of the molecules below, note its inhibition at 3.3 µM.
1. O=C(NCc1ccc(C(c2c(O)c3c(oc2=O)CCCCCC3)C2CC2)s1)OCc1ccccc1 (centres unmarked)
2. CC(C)CC(c1cccc(NS(=O)(=O)c2ccc(F)cc2)c1)c1c(O)c2c(oc1=O)CCCCCC2 (centres unmarked)
3. CC(=O)Nc1ccc(S(=O)(=O)Nc2cccc(C(c3c(O)c4c(oc3=O)CCCCCC4)C3CC3)c2)cc1 (centres unmarked)

78.7
108
97.8

---

target.desc: HIV-1 protease (Human immunodeficiency virus type 1 group M subtype B, UniProt P04585)
experimental.protocol: biochemical
protocol.conditions: dose 3.300 uM; read-out: HIV-1 Protease % Inhib
Counter-ions that a name gives are not always drawn.
outcome.measure: inhibition at 3.3 µM (%)
One number for each entry, in %.

1. CN(C)c1cccc2c(S(=O)(=O)Nc3cccc(C(c4c(O)c5c(oc4=O)CCCCCC5)C4CC4)c3)cccc12 (centres unmarked) [Example 283] :: 64.2
2. O=c1oc2c(c(O)c1C(Cc1ccccc1)Cc1ccccc1)CCCCC2 [Example 482] :: 20
3. COc1cccc(OC)c1S(=O)(=O)Nc1cccc(C(c2c(O)c3c(oc2=O)CCCCCC3)C2CC2)c1 (centres unmarked) [Example 334] :: 69
4. O=c1oc2c(c(O)c1C(c1ccc(NS(=O)(=O)c3ccc(F)cc3)cc1)C1CC1)CCCCCC2 (centres unmarked) [Example 474] :: 11.4
5. CCC(c1cccc(NC(=O)CCN)c1)c1c(O)c2c(oc1=O)CCCCCC2 (centres unmarked) [Example 220, monohydrochloride] :: 63.6
6. COCCOCCOCCC1CCCCc2c1oc(=O)c(C(c1ccccc1)C1CC1)c2O (centres unmarked) [Example 181] :: 35.1

For each of the molecules below, note its inhibition at 3.3 µM.
1. O=C(Nc1cccc(C(c2c(O)c3c(oc2=O)CCCCCC3)C2CC2)c1)c1ccc(Cl)cc1 (centres unmarked) [Example 206]
2. Cc1cccc(Cl)c1S(=O)(=O)Nc1cccc(C(c2c(O)c3c(oc2=O)CCCCCC3)C2CC2)c1 (centres unmarked) [Example 287]

76.4
68.2

Data origin, for the record: patent US5686486A
